# method-description: qHTS for Inhibitors of Inflammasome Signaling: IL-1-beta AlphaLISA Primary Screen; note: % is set by controls: 0 for no effect and ±100 for the full control effect
# applied-conditions: THP-1 LPS/ATP IL-1B secretion, 16 h; at 57.5 µM
Among all 360,000 compounds or so, about 17,000 (4.7%) were called active. Not shown: some 5% with an inconclusive outcome. Cut-off read from the data, not from the text of the source: active = activity change below about -50%; inconclusive = mostly about -30% to -49%; inactive = weaker than that. The full list was thinned out, with actives kept by preference.
Please reply with one of these outcomes: active, inactive

*Q* # lookup: test call for CC(C)(C)S(=O)(=O)N1Cc2cc(CO)cc(CCO)c2[C@H]1CCO
*A* inactive

*Q* # lookup: test call for CC(=O)c1c(N2CCN(c3ccc(F)cc3)CC2)nc(=S)n(-c2ccccc2)c1C
*A* active

*Q* # lookup: test call for Cc1cc(OCCCC(=O)Nc2cc(S(=O)(=O)N3CCOCC3)ccc2N2CCOCC2)ccc1Cl
*A* inactive

*Q* # lookup: test call for Cc1cccc(CC2(O)C(=O)Nc3ccccc32)n1 (stereo unspecified)
*A* inactive

*Q* # lookup: test call for c1ccc(Cn2nnc3c(NCC4CC4)ncnc32)cc1
*A* inactive

*Q* # lookup: test call for Nc1cccc(OCCCCCOc2cccc(N)c2)c1
*A* inactive

*Q* # lookup: test call for CCCCC(=O)N1CC2(C)CN(C(=O)CCCC)CC(C)(C1)C2=O
*A* inactive

*Q* # lookup: test call for Cc1ccc(NS(=O)(=O)c2ccc(C(C)(C)C)cc2)cn1
*A* inactive

*Q* # lookup: test call for CC(=O)NC(c1cccc(F)c1)c1nc(-c2cccc(F)c2)cs1 (stereo unspecified)
*A* inactive

*Q* # lookup: test call for CCc1ccc(/C=C2\SC(N3CCOCC3)=NC2=O)cc1
*A* active

*Q* # lookup: test call for Cc1ccsc1/C=C1\SC(N2CCOCC2)=NC1=O
*A* inactive

*Q* # lookup: test call for Cc1cc(C)cc(NS(=O)(=O)c2ccc(Oc3ncc(C(F)(F)F)cc3Cl)cc2)c1
*A* active

*Q* # lookup: test call for CC(=O)c1c(N2CCOCC2)nc(=S)n(-c2cc(C)ccc2C)c1C
*A* inactive

*Q* # lookup: test call for O=C1[C@H]2[C@@H](c3ccc(C(F)(F)F)cc3)N[C@]3(CCCN(Cc4ccc(Br)cc4)C3=O)[C@H]2C(=O)N1Cc1ccccc1
*A* inactive

*Q* # lookup: test call for N#C/C(=C/c1ccc(N2CCCCC2)o1)C(=O)NCCc1c[nH]c2ccccc12
*A* active

*Q* # lookup: test call for CN(C(=O)CN1CCN(c2cc(-c3ccc(OCc4ccccc4)cc3)ncn2)CC1)c1ccccc1
*A* inactive

*Q* # lookup: test call for CC1CCN(C2=NC(=O)/C(=C/c3ccc(O)cc3)S2)CC1
*A* inactive

*Q* # lookup: test call for CC1C(=O)N(Cc2cn(CC3CCCCC3)nn2)CCS(=O)(=O)N1Cc1ccc(-c2cccc(N(C)C)c2)cc1 (stereo unspecified)
*A* inactive

*Q* # lookup: test call for Clc1ccc(C[n+]2cc(-c3ccc(Cl)cc3)n3c2CCC3)cc1
*A* active

*Q* # lookup: test call for O=C(CCCN1C(=O)C(c2ccccc2)Oc2cccnc21)Nc1ccccc1Br (stereo unspecified)
*A* inactive

*Q* # lookup: test call for Cc1csc(SCC(=O)Nc2ccc(C)c(S(=O)(=O)N(C)C)c2)n1
*A* inactive

====

# method-description: qHTS for Inhibitors of Inflammasome Signaling: IL-1-beta AlphaLISA Primary Screen
# applied-conditions: THP-1 LPS/ATP IL-1B secretion, 16 h; at 57.5 µM, hits give low values
In all, about 360,000 compounds went through this assay and about 17,000 (4.7%) were called active. Not shown: some 5% with an inconclusive outcome. The sample holds actives, similar compounds and a random draw of the others, so the mix is not that of the screen.
For each record, write down the corresponding activity change.
Kindly provide the numeric value in % only, without the unit symbol.

get_value(item= CC(OC(=O)c1ccc(NC(=O)CC#N)cc1)C(=O)Nc1ccc(S(=O)(=O)N2CCCC2)cc1 (stereo not given) , readout=activity change) returns -25.9

get_value(item= NNC(=O)COc1ccc(C2SCCS2)cc1 , readout=activity change) returns 15.3

get_value(item= CC(=O)NCc1ccc(-c2csc(NC(=O)CCCc3nc4ccccc4c(=O)[nH]3)n2)cc1 , readout=activity change) returns -3.36

get_value(item= Cc1ccc(NC(=O)c2cc([N+](=O)[O-])ccc2Cl)c(O)c1 , readout=activity change) returns -76

get_value(item= CCOC(=O)Cc1csc(NC(=O)CSc2ccc(Br)cc2)n1 , readout=activity change) returns 35.1

get_value(item= CN(CC(=O)NC1CCN(Cc2ccccc2)CC1)S(=O)(=O)c1ccc(Cl)s1 , readout=activity change) returns -53.7

get_value(item= CN(CC(=O)NC1CCCCC1)S(=O)(=O)c1ccc(Br)s1 , readout=activity change) returns 2.52

get_value(item= O=C(N[C@@H](Cc1c[nH]c2ccccc12)C(=O)O)OCC1c2ccccc2-c2ccccc21 , readout=activity change) returns 4.34

get_value(item= Cc1ccc(C)c(S(=O)(=O)N2CCN(c3ncnc4sccc34)CC2)c1 , readout=activity change) returns -53.3

get_value(item= Cc1cc(=O)c2ccc(NC(=O)c3ccccc3)cc2[nH]1 , readout=activity change) returns -15.4

====

# method-description: qHTS for Inhibitors of Inflammasome Signaling: IL-1-beta AlphaLISA Primary Screen
# applied-conditions: THP-1 LPS/ATP IL-1B secretion, 16 h; at 57.5 µM
Out of some 360,000 compounds screened, about 17,000 (4.7%) were called active. Roughly 5% stayed inconclusive and do not appear here. No stated cut-off is given here; in the data, active means activity change below about -50%; inconclusive means mostly about -30% to -49%; inactive means weaker than that. This is one part of a sample in which actives are shown more often than they occur.
Please reply with one of these outcomes: yes (1) = active, no (0) = inactive

*Q* # lookup: test call for Cc1ccc(OCc2nc(C#N)c(N3CCCC3)o2)cc1
*A* yes (1)

*Q* # lookup: test call for CC(OC(=O)C1CC(=O)N(Cc2ccccc2)C1)C(=O)Nc1ccccc1[N+](=O)[O-] (stereo not given)
*A* no (0)

*Q* # lookup: test call for N#Cc1nc(COc2ccc(Cl)cc2)oc1N1CCCC1
*A* yes (1)

*Q* # lookup: test call for COc1ccc(-c2oc(/N=C/N3CCCC3)c(C#N)c2-c2ccc(OC)cc2)cc1
*A* no (0)

*Q* # lookup: test call for Cc1cc(=O)oc2cc(NC(=O)C3CC(=O)N(Cc4ccccc4)C3)ccc12 (stereo not given)
*A* no (0)

====

# method-description: qHTS for Inhibitors of Inflammasome Signaling: IL-1-beta AlphaLISA Primary Screen
# applied-conditions: THP-1 LPS/ATP IL-1B secretion, 16 h; at 57.5 µM, hits give low values
The whole screen tested about 360,000 compounds, of which about 17,000 (4.7%) were called active. Roughly 5% stayed inconclusive and do not appear here. The list comes from a sample in which actives are over-represented; it also holds close analogues and randomly drawn compounds.
For each record, write down the corresponding activity change.
Kindly provide the numeric value in % only, without the unit symbol.

get_value(item= CC(=O)C[C@@H]1OC[C@H](CO)N1S(=O)(=O)c1ccc(C)cc1 , readout=activity change) returns 5.63

get_value(item= CN(CC(=O)Nc1ccc(Cl)cc1)C(=O)c1ccc(COc2ccccc2)cc1 , readout=activity change) returns 5.98

get_value(item= CNc1ccc([N+](=O)[O-])cc1C(=O)O , readout=activity change) returns 12.5

get_value(item= CCCC(O)(CCC)C(=O)NN(C(=O)CCl)c1cccc(C)c1 , readout=activity change) returns -219

get_value(item= Cc1ccccc1N/N=C/c1ccc(N2CCOCC2)cc1 , readout=activity change) returns 0.147

get_value(item= O=C(Nc1ccc(Cl)cc1)N1CCc2[nH]c3ccccc3c2C1 , readout=activity change) returns -18.5

get_value(item= CCCCCn1nnnc1C1c2ccccc2C(=O)N1Cc1ccco1 (stereo not given) , readout=activity change) returns 0

get_value(item= C/C(=N\OCC(=O)O)c1ccc(Cl)cc1 , readout=activity change) returns 0

get_value(item= O=[N+]([O-])c1ccc(C(S(=O)(=O)Cc2ccccc2)S(=O)(=O)Cc2ccccc2)cc1 , readout=activity change) returns -14.4

get_value(item= CS(=O)(=O)c1cccc(-c2ccc3nncn3c2)c1 , readout=activity change) returns 11.3

get_value(item= Cc1cccc(NC(=S)NC23CN4CN(CN(C4)C2)C3)c1 , readout=activity change) returns -14.8

get_value(item= O=S1(=O)CC(N2CCN(c3ccccn3)CC2)CN1Cc1ccc(F)cc1 (stereo not given) , readout=activity change) returns -7.1

get_value(item= CCNC(=O)CN(c1ccc(C)cc1)S(=O)(=O)c1ccc(SC)cc1 , readout=activity change) returns -55.3

get_value(item= Cc1cccc(-c2nc(Nc3ccc(O)cc3)c3ccccc3n2)c1 , readout=activity change) returns -81.3

get_value(item= CC(C)(O)C(=O)NN(C(=O)c1ccccc1)c1cccc(Br)c1 , readout=activity change) returns -15.5

get_value(item= CCc1nc2ccc(C(=O)NC3CCN(Cc4ccccc4)CC3)cn2c1N(C)CCN1CCOCC1 , readout=activity change) returns -15.7

get_value(item= CCCCn1c(N)c(N(CCC(C)C)C(=O)COC(=O)c2cccnc2OCC)c(=O)[nH]c1=O , readout=activity change) returns -17.5

get_value(item= CN(Cc1ccccc1)C(=O)COc1ccccc1 , readout=activity change) returns -10.6

get_value(item= O=C(CN1CCCCCC1)N1c2ccccc2Sc2ccc(C(F)(F)F)cc21 , readout=activity change) returns -60

get_value(item= S=C(Nc1cccc(Cl)c1)Nc1ccc2c(c1)OCCO2 , readout=activity change) returns -23.6

get_value(item= O=C(OCc1cc(Cl)ccc1OC(F)F)c1cccnc1 , readout=activity change) returns 26

get_value(item= CCC(C)C(=O)Nc1cc([N+](=O)[O-])ccc1Cl (stereo not given) , readout=activity change) returns 4.95

get_value(item= Cc1cccc(NC(=S)Nc2ccc(Cl)c(Cl)c2)c1 , readout=activity change) returns -89.5

get_value(item= Cc1ccc([C@H]2N[C@]3(CCCN(CC4CCCCC4)C3=O)[C@H]3C(=O)N(Cc4ccccc4)C(=O)[C@@H]23)cc1 , readout=activity change) returns -9.33

get_value(item= CCCCC(O)(CCCC)C(=O)NN(C(=O)CCl)c1ccccc1 , readout=activity change) returns -78.2

get_value(item= Oc1ccc(-c2nnc(Nc3ccccc3)c3ccccc23)cc1 , readout=activity change) returns 13.6

get_value(item= Cc1nc(C(F)(F)F)ccc1C(=O)N1CCC1(C)C(=O)NS(=O)(=O)c1ccccc1Cl (stereo not given) , readout=activity change) returns 27.9

get_value(item= Cc1cc(OC(=O)c2ccccc2)c([N+](=O)[O-])c(=O)[nH]1 , readout=activity change) returns -9.86

get_value(item= Cn1cnc(S(=O)(=O)N2C[C@@H](O)COC[C@@H]3O[C@H](CC(=O)NC4CCC4)CC[C@H]32)c1 , readout=activity change) returns 3.76

get_value(item= Cc1cc(Nc2ccc(C(=O)N3CCCCC3)cc2)c2cccc(C)c2n1 , readout=activity change) returns -2.62

get_value(item= CC1CN(Cc2ccccc2)C(=S)NC1=O (stereo not given) , readout=activity change) returns 5.57

get_value(item= C/C(=N\N=C(N)N)c1ccc(Cl)cc1 , readout=activity change) returns -86.4

get_value(item= COc1cc(CNC2CCCC2)c(Br)cc1OCc1ccccc1 , readout=activity change) returns -92.7

get_value(item= CC(C)(C)NCc1cc(Br)ccc1OC1CCCC1 , readout=activity change) returns -13.9

get_value(item= Nc1[nH]c(C(=O)c2ccccc2)c(-c2ccncc2)c1C(=O)NCc1cccc2ccccc12 , readout=activity change) returns 7.69

get_value(item= O=C(NCc1ccc(Cl)c(Cl)c1)c1cccnc1 , readout=activity change) returns 3.6

get_value(item= Cc1cccc(NC(=S)Nc2ccc3cn[nH]c3c2)c1 , readout=activity change) returns -16.5

get_value(item= COc1cc(/C=C/C(=O)N2c3ccccc3Sc3ccc(C(F)(F)F)cc32)cc(OC)c1OC , readout=activity change) returns -1.9

get_value(item= Cc1ccc(N(NC(=O)C(C)(C)O)C(=O)c2ccccc2)cc1C , readout=activity change) returns 38.2

get_value(item= O=C(CN1CCCCC1)N1c2ccccc2Sc2ccc(C(F)(F)F)cc21 , readout=activity change) returns -13.4

get_value(item= Cc1ccc(S(=O)(=O)N(CC(=O)NN=C2CCN(C)CC2)c2ccc(F)cc2)cc1 , readout=activity change) returns 31

get_value(item= C/C(=N\NC(=S)NCc1ccccc1)c1ccc(Cl)cc1 , readout=activity change) returns 0

get_value(item= COc1ccc(C)cc1NC(=O)CSc1cccc[n+]1[O-] , readout=activity change) returns 0.963

get_value(item= CC(=O)c1cc(CN2CCC(n3nccc3NC(=O)c3ccccc3Cl)CC2)cs1 , readout=activity change) returns -15.4

get_value(item= CCn1c(=S)[nH]c2cc(S(=O)(=O)N3CCOCC3)ccc21 , readout=activity change) returns 46.6
